Assay: Solubility assessment under saturation conditions in simulated gastrointestinal media
Conditions: pH 1.6, fassgf or other biorelevant, thermodynamic from solid
recorded.metric: solubility at 1 h (µg/mL)
Reply numerically in µg/mL, unit not repeated.

Exercise: Record request: solubility at 1 h value, item Cc1cc(O)c2c(c1)C(=O)c1cc(O)cc(O)c1C2=O [Emodin, 1,3,8-trihydroxy-6-methylanthraquinone]
Key: 7.1

----------
Assay: Solubility assessment under saturation conditions in simulated gastrointestinal media
Settings: FeSSIF (fed-state simulated intestinal fluid), pH 5, fessif, thermodynamic from solid
recorded.metric: solubility at 1 h (µg/mL)
Reply numerically in µg/mL, unit not repeated.

Exercise: Record request: solubility at 1 h value, item O=c1c(O)c(-c2ccc(O)c(O)c2)oc2cc(O)cc(O)c12 [Quercetin, 3,3′,4′,5,7-pentahydroxylflavone]
Key: 146
